assay-comment: small-molecule microarray binders of probe aCHRDL2, primary screen, biochemical, biotinylated probe, 635/667 nm fluorescence (AID 1100)
details: higher = more signal
measured-endpoint: composite z-score
Give the figure only, with no unit attached.

In the examples that follow, each entry is paired with its recorded composite z-score.
| substance-smiles | composite z-score |
| --- | --- |
| COCCOC(=O)N1C(=O)[C@@]2(c3cc(C#CC4=CCCCC4)ccc31)[C@H](c1ccc(O)cc1)N1[C@H](c3ccccc3)[C@H](c3ccccc3)OC(=O)[C@H]1[C@@H]2C(=O)N1CCCCCCC1 | 0.842 |
| Cc1ccc(N2C(=O)c3ccccc3[C@](C)(C(=O)O)[C@@H]2c2ccc(CO)cc2)nc1 | 0.365 |
| [N-]=[N+]=NCc1ccccc1C[C@]1(C(N)=O)N=C(c2ccc(OCCCO)cc2)O[C@H]1c1ccccc1CN=[N+]=[N-] | 1.29 |
| Cc1ccc(N2C(=O)c3ccccc3[C@@H](C(=O)NCC(F)(F)F)[C@@H]2c2ccc(CO)cc2)nc1 | 1.22 |
| COCCOC(=O)N1C(=O)[C@@]2(c3cc(C#CCCO)ccc31)[C@H](c1ccc(OCCO)cc1)N1[C@H](c3ccccc3)[C@H](c3ccccc3)OC(=O)[C@H]1[C@@H]2C(=O)NC[C@H](O)c1ccccc1 | -0.0641 |

Recorded result, CO[C@H]1COC(=O)CC=C[C@H](C)[C@@H](OC)COC(=O)CC=C[C@@H]1C , composite z-score: -1.11

Recorded result, C=C(COC)/C(=C/C[C@@H](OC(C)=O)c1cccc(OCCO)c1)c1cc(C(=O)OC)ccc1OC , composite z-score: 0.258

Origin of measurements: PubChem BioAssay
